# System: nitric oxide synthase (NOS)
# experimentalDetails: Nitric oxide synthase activity in brain regions, radiometric [3H]L-citrulline method
# Assay type: in vivo, Wistar rats
# setupConditions: Morphine + compound, 3 x 20 mg/kg intramuscularly; one value for the three compounds
Here, each record is paired with measured Activity of NOS, hypothalamus data.

{"columns": ["compound", "Activity of NOS, hypothalamus"],
 "data": [
  ["O=c1[nH][nH]c(=O)c2c(Br)ncnc12.[K]", "5.56 ± 0.34 nmol/min/mg of protein"],
  ["Nc1cnc2c(=O)n([C@@H]3O[C@H](CO)[C@@H](O)[C@H]3O)[nH]c(=O)c2n1.[Na]", "5.47 ± 0.32 nmol/min/mg of protein"],
  ["O=c1[nH][nH]c(=O)c2nccnc12.[Li]", "5.47 ± 0.32 nmol/min/mg of protein"],
  ["O=C([O-])c1cnc2c(=O)[nH]n([C@@H]3O[C@H](CO)[C@@H](O)[C@H]3O)c(=O)c2n1.O=C([O-])c1cnc2c(=O)[nH]n([C@@H]3O[C@H](CO)[C@@H](O)[C@H]3O)c(=O)c2n1.[Na+].[Na+]", "5.47 ± 0.32 nmol/min/mg of protein"]
]}
